Below, each entry is listed with its recorded MIC.
tested on: Staphylococcus aureus; assay: Antimicrobial activity against MLSB-resistant Staphylococcus aureus incubated for 18 hrs by serial microdilution method; format: functional
# number only, unit µg/mL dropped from output

LINE_NOTATION	SYSTEM_TESTED	MIC (µg/mL)
CO[C@H]1/C=C/O[C@@]2(C)Oc3c(C)c(O)c4c(O)c(c(/C=N/NC5CCCCC5)c(O)c4c3C2=O)NC(=O)/C(C)=C\C=C\[C@H](C)[C@H](O)[C@@H](C)[C@@H](O)[C@@H](C)[C@H](OC(C)=O)[C@@H]1C	Staphylococcus aureus	0.5

Field: next compound
Challenge: Given "CO[C@H]1/C=C/O[C@@]2(C)Oc3c(C)c(O)c4c(O)c(c(CN5CCC(N(C)C)CC5)c(O)c4c3C2=O)NC(=O)/C(C)=C\C=C\[C@H](C)[C@H](O)[C@@H](C)[C@@H](O)[C@@H](C)[C@H](OC(C)=O)[C@@H]1C" , respond with its MIC.
Response given: 0.125

---

Below, each entry is listed with its recorded logP at 1 h.
experiment: Lipophilicity, log P of the compound in octanol and water incubated for 1 h under shaking condition; format: physicochemical
Write the value as a bare number.

Example entries begin here.
LINE_NOTATION	logP at 1 h
CO[C@H]1/C=C/O[C@@]2(C)Oc3c(C)c(O)c4c(O)c(c(/C=N/Nc5ccnc6cc(Cl)ccc56)c(O)c4c3C2=O)NC(=O)/C(C)=C\C=C\[C@H](C)[C@H](O)[C@@H](C)[C@@H](O)[C@@H](C)[C@H](OC(C)=O)[C@@H]1C	2.1
CO[C@H]1/C=C/O[C@@]2(C)Oc3c(C)c(O)c4c(O)c(c(/C=N/NC(C)(C)C)c(O)c4c3C2=O)NC(=O)/C(C)=C\C=C\[C@H](C)[C@H](O)[C@@H](C)[C@@H](O)[C@@H](C)[C@H](OC(C)=O)[C@@H]1C	2.43
CO[C@H]1/C=C/O[C@@]2(C)Oc3c(C)c(O)c4c(O)c(c(/C=N/NC5CCCCC5)c(O)c4c3C2=O)NC(=O)/C(C)=C\C=C\[C@H](C)[C@H](O)[C@@H](C)[C@@H](O)[C@@H](C)[C@H](OC(C)=O)[C@@H]1C	2.1

Challenge: Given "CO[C@H]1/C=C/O[C@@]2(C)Oc3c(C)c(O)c4c(O)c(c(CNC56CC7CC(CC(C7)C5)C6)c(O)c4c3C2=O)NC(=O)/C(C)=C\C=C\[C@H](C)[C@H](O)[C@@H](C)[C@@H](O)[C@@H](C)[C@H](OC(C)=O)[C@@H]1C" , respond with its logP at 1 h.
Response given: 1.91

---

experiment: Lipophilicity, log P of the compound in octanol and water incubated for 1 h under shaking condition; type: physicochemical
PROPERTY_MEASURED: logP at 1 h

Example entries begin here.
LINE_NOTATION	RESULT
CO[C@H]1/C=C/O[C@@]2(C)Oc3c(C)c(O)c4c(O)c(c(CN5CCC6(CC5)NCCc5ccccc56)c(O)c4c3C2=O)NC(=O)/C(C)=C\C=C\[C@H](C)[C@H](O)[C@@H](C)[C@@H](O)[C@@H](C)[C@H](OC(C)=O)[C@@H]1C	2.09
CO[C@H]1/C=C/O[C@@]2(C)Oc3c(C)c(O)c4c(O)c(c(CN5CCN(c6ncccn6)CC5)c(O)c4c3C2=O)NC(=O)/C(C)=C\C=C\[C@H](C)[C@H](O)[C@@H](C)[C@@H](O)[C@@H](C)[C@H](OC(C)=O)[C@@H]1C	2.02
CO[C@H]1/C=C/O[C@@]2(C)Oc3c(C)c(O)c4c(O)c(c(/C=N/NC5=NCCN5)c(O)c4c3C2=O)NC(=O)/C(C)=C\C=C\[C@H](C)[C@H](O)[C@@H](C)[C@@H](O)[C@@H](C)[C@H](OC(C)=O)[C@@H]1C	1.33

Field: next compound
Challenge: Given "CO[C@H]1/C=C/O[C@@]2(C)Oc3c(C)c(O)c4c(O)c(c(/C=N/N5CCCCC5)c(O)c4c3C2=O)NC(=O)/C(C)=C\C=C\[C@H](C)[C@H](O)[C@@H](C)[C@@H](O)[C@@H](C)[C@H](OC(C)=O)[C@@H]1C" , respond with its logP at 1 h.
Response given: 3.27

---

Below, each entry is listed with its recorded MIC.
tested on: Staphylococcus epidermidis; test: Antimicrobial activity against Staphylococcus epidermidis ATCC 12228 incubated for 18 hrs by serial microdilution method; assay type: functional; details: ATCC 12228, 18 h
# number only, unit µg/mL dropped from output

LINE_NOTATION	SYSTEM_TESTED	MIC (µg/mL)
CO[C@H]1/C=C/O[C@@]2(C)Oc3c(C)c(O)c4c(O)c(c(CN5CCC(N6CCC(C(=O)O)CC6)CC5)c(O)c4c3C2=O)NC(=O)/C(C)=C\C=C\[C@H](C)[C@H](O)[C@@H](C)[C@@H](O)[C@@H](C)[C@H](OC(C)=O)[C@@H]1C	Staphylococcus epidermidis	0.0078
CO[C@H]1/C=C/O[C@@]2(C)Oc3c(C)c(O)c4c(O)c(c(CNC5CCN(CC(=O)O)CC5)c(O)c4c3C2=O)NC(=O)/C(C)=C\C=C\[C@H](C)[C@H](O)[C@@H](C)[C@@H](O)[C@@H](C)[C@H](OC(C)=O)[C@@H]1C	Staphylococcus epidermidis	0.0625
CO[C@H]1/C=C/O[C@@]2(C)Oc3c(C)c(O)c4c(O)c(c(CNCC(=O)N5CCCCC5)c(O)c4c3C2=O)NC(=O)/C(C)=C\C=C\[C@H](C)[C@H](O)[C@@H](C)[C@@H](O)[C@@H](C)[C@H](OC(C)=O)[C@@H]1C	Staphylococcus epidermidis	0.5

Challenge: Given "CO[C@H]1/C=C/O[C@@]2(C)Oc3c(C)c(O)c4c(O)c(c(CNC56CC7CC(CC(C7)C5)C6)c(O)c4c3C2=O)NC(=O)/C(C)=C\C=C\[C@H](C)[C@H](O)[C@@H](C)[C@@H](O)[C@@H](C)[C@H](OC(C)=O)[C@@H]1C" , respond with its MIC.
Response given: 4

---

assay: Lipophilicity, log P of the compound in octanol and water incubated for 1 h under shaking condition; type: physicochemical
PROPERTY_MEASURED: logP at 1 h
Write the value as a bare number.

Example entries begin here.
MOLECULE	RESULT
CO[C@H]1/C=C/O[C@@]2(C)Oc3c(C)c(O)c4c(O)c(c(CN5CCN(C)CC5)c(O)c4c3C2=O)NC(=O)/C(C)=C\C=C\[C@H](C)[C@H](O)[C@@H](C)[C@@H](O)[C@@H](C)[C@H](OC(C)=O)[C@@H]1C	1.76
CO[C@H]1/C=C/O[C@@]2(C)Oc3c(C)c(O)c4c(O)c(c(CNC5CCN(S(C)(=O)=O)CC5)c(O)c4c3C2=O)NC(=O)/C(C)=C\C=C\[C@H](C)[C@H](O)[C@@H](C)[C@@H](O)[C@@H](C)[C@H](OC(C)=O)[C@@H]1C	2.34
CO[C@H]1/C=C/O[C@@]2(C)Oc3c(C)c(O)c4c(O)c(c(CN5CCN(c6ncccc6C(F)(F)F)CC5)c(O)c4c3C2=O)NC(=O)/C(C)=C\C=C\[C@H](C)[C@H](O)[C@@H](C)[C@@H](O)[C@@H](C)[C@H](OC(C)=O)[C@@H]1C	2.09

Challenge: Given CO[C@H]1/C=C/O[C@@]2(C)Oc3c(C)c(O)c4c(O)c(c(CNC5CCCC(C(N)=O)C5)c(O)c4c3C2=O)NC(=O)/C(C)=C\C=C\[C@H](C)[C@H](O)[C@@H](C)[C@@H](O)[C@@H](C)[C@H](OC(C)=O)[C@@H]1C (some centres undefined) , respond with its logP at 1 h.
Response given: 1.33

Challenge: Given "CCS(=O)(=O)N1CCN(Cc2c3c(O)c4c(O)c(C)c5c(c4c2O)C(=O)[C@@](C)(O/C=C/[C@H](OC)[C@@H](C)[C@@H](OC(C)=O)[C@H](C)[C@H](O)[C@H](C)[C@@H](O)[C@@H](C)/C=C/C=C(/C)C(=O)N3)O5)CC1" , respond with its logP at 1 h.
Response given: 1.41

Challenge: Given "CO[C@H]1/C=C/O[C@@]2(C)Oc3c(C)c(O)c4c(O)c(c(CN5CCN(C(c6ccc(F)cc6)c6ccc(F)cc6)CC5)c(O)c4c3C2=O)NC(=O)/C(C)=C\C=C\[C@H](C)[C@H](O)[C@@H](C)[C@@H](O)[C@@H](C)[C@H](OC(C)=O)[C@@H]1C" , respond with its logP at 1 h.
Response given: 2.34

Challenge: Given CO[C@H]1/C=C/O[C@@]2(C)Oc3c(C)c(O)c4c(O)c(c(CNC5CCCNC5=O)c(O)c4c3C2=O)NC(=O)/C(C)=C\C=C\[C@H](C)[C@H](O)[C@@H](C)[C@@H](O)[C@@H](C)[C@H](OC(C)=O)[C@@H]1C (some centres undefined) , respond with its logP at 1 h.
Response given: 1.14

Challenge: Given "CO[C@H]1/C=C/O[C@@]2(C)Oc3c(C)c(O)c4c(O)c(c(CN5CCN(C)C6(CCN(C)CC6)C5)c(O)c4c3C2=O)NC(=O)/C(C)=C\C=C\[C@H](C)[C@H](O)[C@@H](C)[C@@H](O)[C@@H](C)[C@H](OC(C)=O)[C@@H]1C" , respond with its logP at 1 h.
Response given: 0.72

Challenge: Given "CO[C@H]1/C=C/O[C@@]2(C)Oc3c(C)c(O)c4c(O)c(c(CNCCN5CCCC5=O)c(O)c4c3C2=O)NC(=O)/C(C)=C\C=C\[C@H](C)[C@H](O)[C@@H](C)[C@@H](O)[C@@H](C)[C@H](OC(C)=O)[C@@H]1C" , respond with its logP at 1 h.
Response given: 1.24

Reference for the values: ChEMBL document CHEMBL4339185
